# Tested on: HCT-116
# test-description: Cytotoxicity against human HCT-116 cells incubated for 72 hrs by MTS assay
# Assay type: functional, cell-based
# assay-conditions: HCT-116, 72 h
# IC50 listing for each entry below
observed-property: IC50 (µM)

input-smiles: O=c1[nH]cc(F)c(=O)[nH]1
endpoint-result: 8.03

input-smiles: CN1C(=O)C=C(c2cccc3c2N(C(=O)C(C)(C)C)CC3)C1=O
endpoint-result: 3.96

input-smiles: CN1C(=O)C=C(c2cccc3c2N(C(=O)C2CC2)CC3)C1=O
endpoint-result: 3.45

input-smiles: C=C(C)C(=O)N1CCc2cccc(C3=CC(=O)N(C)C3=O)c21
endpoint-result: 1.57
